# target desc: T1, GST (UniProt P08515 1-218 = GST)
# T1 construct: Negative control in the pulldowns; also called GST protein; GST alone
# T1 sequence (P08515 whole entry): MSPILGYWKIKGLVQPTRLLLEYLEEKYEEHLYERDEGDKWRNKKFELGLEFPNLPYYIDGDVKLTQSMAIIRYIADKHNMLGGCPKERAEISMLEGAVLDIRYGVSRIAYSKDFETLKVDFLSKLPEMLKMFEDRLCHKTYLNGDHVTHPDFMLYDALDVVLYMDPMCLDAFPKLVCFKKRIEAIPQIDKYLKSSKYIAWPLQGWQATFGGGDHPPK
# assay procedure: GST pulldown of [35S]-labeled in vitro translated protein, autoradiography
quantity: binding result

[35S]methionine-labeled IκB-α 72-287 (in vitro translated) (other, [35S]methionine label) EDGDSFLHLAIIHEEKALTMEVIRQVKGDLAFLNFQNNLQQTPLHLAVITNQPEIAEALLGAGCDPELRDFRGNTPLHLACEQGCLASVGVLTQSCTTPHLHSILKATNYNGHTCLHLASIHGYLGIVELLVSLGADVNAQEPCNGRTALHLAVDLQNPDLVSLLLKCGADVNRVTYQGYSPYQLTWGRPSTRIQQQLGQLTLENLQMLPESEDEE    no binding
[35S]methionine-labeled IκB-α 120-317 (in vitro translated) (other, UniProt P25963 120-317, looked up, [35S]methionine label, Translated in vitro from pcDNA3) ITNQPEIAEALLGAGCDPELRDFRGNTPLHLACEQGCLASVGVLTQSCTTPHLHSILKATNYNGHTCLHLASIHGYLGIVELLVSLGADVNAQEPCNGRTALHLAVDLQNPDLVSLLLKCGADVNRVTYQGYSPYQLTWGRPSTRIQQQLGQLTLENLQMLPESEDEESYDTESEFTEFTEDELPYDDCVFGGQRLTL    no binding
[35S]methionine-labeled IκB-α 243-317 (in vitro translated) (other, UniProt P25963 243-317, looked up, [35S]methionine label, Translated in vitro from pcDNA3) VNRVTYQGYSPYQLTWGRPSTRIQQQLGQLTLENLQMLPESEDEESYDTESEFTEFTEDELPYDDCVFGGQRLTL    no binding
[35S]methionine-labeled IκB-α 72-287 L(272,274,277)A (in vitro translated) (other, UniProt P25963 72-287, looked up, [35S]methionine label, range 72-287) EDGDSFLHLAIIHEEKALTMEVIRQVKGDLAFLNFQNNLQQTPLHLAVITNQPEIAEALLGAGCDPELRDFRGNTPLHLACEQGCLASVGVLTQSCTTPHLHSILKATNYNGHTCLHLASIHGYLGIVELLVSLGADVNAQEPCNGRTALHLAVDLQNPDLVSLLLKCGADVNRVTYQGYSPYQLTWGRPSTRIQQQLGQATAENAQMLPESEDEE    no binding

Values from patent US20100093618A1
